- measurementTarget: C-CBL (residues 46-435) (Homo sapiens)
- Construct: Purified CBL-B (residues 36-427) and C-CBL (residues 46-435) proteins from baculovirus-infected insect cells; made in house; host or cells: baculovirus-infected insect cells
- testMethodNotes: Ligand Displacement Assay (LDA), HTRF competitive binding against BODIPY-labeled fluorescent tracer, C-CBL
- settings: geometric mean of the number of tests, read-out: C-CBL Ki (nM) GMean
quantity: Ki (nM)

1. C[C@@H](NC(C)(C)CO)c1nc(C(F)(F)F)cc2c(-c3cccc([C@H](c4nncn4C)C4CCC4)c3)n[nH]c12 (single isomer, unassigned) : 76.5
2. CN1CC[C@@H](Oc2nc(C(F)(F)F)cc3c(-c4cccc([C@H](c5nncn5C)C5CCC5)c4)n[nH]c23)C1 : 83.6
3. CC(O)c1nc(C(F)(F)F)cc2c(-c3cccc(C4(Cc5nncn5C)COC4)c3)n[nH]c12 (single isomer, unassigned) [Example K10] : 219
4. Cn1cnnc1CC1(c2cccc(-c3n[nH]c4c(OCCN)nc(C(F)(F)F)cc34)c2)COC1 : 76.3
5. Cn1cnnc1[C@@H](c1cccc(-c2n[nH]c3cnc(Cl)cc23)c1)C1CCC1 : 362
6. C[C@@H]1CCCN(Cc2nc(C(F)(F)F)cc3c(-c4cccc([C@H](c5nncn5C)C5CCC5)c4)n[nH]c23)C1 : 630
7. C[C@@H]1CN([C@@H](C)c2nc(C(F)(F)F)cc3c(-c4cccc(C5(Cc6nncn6C)COC5)c4)n[nH]c23)CCO1 (single isomer, unassigned) : 104
8. CC(N[C@@H]1CCOC1)c1nc(C(F)(F)F)cc2c(-c3cccc(C4(Cc5nncn5C)COC4)c3)n[nH]c12 (single isomer, unassigned) [Example C85] : 92.5
9. CC(c1nc(C(F)(F)F)cc2c(-c3cccc(C4(Cc5nncn5C)COC4)c3)n[nH]c12)N1CCCCC1 (single isomer, unassigned) [Example C21] : 93.5
10. Cn1cnnc1[C@@H](c1cccc(-c2n[nH]c3c(CN4CCNC(=O)C4)nc(C(F)(F)F)cc23)c1)C1CCC1 : 114
11. CC(NC1CNC1)c1nc(C(F)(F)F)cc2c(-c3cccc(C4(Cc5nncn5C)COC4)c3)n[nH]c12 (single isomer, unassigned) [Example C28] : 114
12. CC(N)c1nc(C(F)(F)F)cc2c(-c3cccc(C4(Cc5nncn5C)COC4)c3)n[nH]c12 (single isomer, unassigned) [Example K17] : 145
13. CN1CC[C@@H](N(C)c2nc(C(F)(F)F)cc3c(-c4cccc([C@H](c5nncn5C)C5CCC5)c4)n[nH]c23)C1 : 275

* * *

- measurementTarget: CBL-B (residues 36-427) (Homo sapiens)
- Construct: Purified CBL-B (residues 36-427) and C-CBL (residues 46-435) proteins from baculovirus-infected insect cells; made in house; host or cells: baculovirus-infected insect cells
- testMethodNotes: Ligand Displacement Assay (LDA), HTRF competitive binding against BODIPY-labeled fluorescent tracer, CBL-B
- settings: geometric mean of the number of tests, read-out: CBL-B Ki (nM) GMean
Item-by-item account of Ki
quantity: Ki (nM)

1) C[C@H](NC1CCCC1)c1nc(C(F)(F)F)cc2c(-c3cccc([C@H](c4nncn4C)C4CCC4)c3)n[nH]c12 (single isomer, unassigned) : 11.4
2) CC(N[C@@H]1CCOC1)c1nc(C(F)(F)F)cc2c(-c3cccc(C4(Cc5nncn5C)COC4)c3)n[nH]c12 (single isomer, unassigned) [Example C86] : 9
3) Cn1cnnc1CC1(c2cccc(-c3n[nH]c4ncc(C(F)(F)F)cc34)c2)COC1 : 75.3
4) C[C@H](Cc1nncn1C)c1cccc(-c2n[nH]c3cnc(C(F)(F)F)cc23)c1 : 70
5) Cn1cnnc1[C@@H](c1cccc(-c2n[nH]c3c(C4CCCN4)nc(C(F)(F)F)cc23)c1)C1CCC1 (single isomer, unassigned) [Example L4] : 19.2
6) CC(=O)NCC(C)c1nc(C(F)(F)F)cc2c(-c3cccc([C@H](c4nncn4C)C4CCC4)c3)n[nH]c12 (single isomer, unassigned) [Example M5] : 52.5
7) C[C@H](N[C@H]1CC[C@@H]1O)c1nc(C(F)(F)F)cc2c(-c3cccc([C@H](c4nncn4C)C4CCC4)c3)n[nH]c12 (single isomer, unassigned) : 5.4
8) C[C@H](CO)N[C@H](C)c1nc(C(F)(F)F)cc2c(-c3cccc([C@H](c4nncn4C)C4CCC4)c3)n[nH]c12 (single isomer, unassigned) : 2.2
9) Cn1cnnc1[C@@H](c1cccc(-c2n[nH]c3cnc(Cl)cc23)c1)C1CCC1 : 31.1
10) CC(O)c1nc(C2CC2)cc2c(-c3cccc(C4(Cc5nncn5C)COC4)c3)n[nH]c12 (single isomer, unassigned) [Example H5] : 28.5
11) C[C@H](c1nc(C(F)(F)F)cc2c(-c3cccc([C@H](c4nncn4C)C4CCC4)c3)n[nH]c12)N1CC(C)(O)C1 (single isomer, unassigned) : 10.9
12) C[C@@H](N[C@H]1CCC(F)(F)C1)c1nc(C(F)(F)F)cc2c(-c3cccc([C@H](c4nncn4C)C4CCC4)c3)n[nH]c12 : 5

* * *

Item-by-item account of log10 Ki
- measurementTarget: CBL-B (residues 36-427) (Homo sapiens, UniProt Q13191)
- Construct: Purified CBL-B (residues 36-427) and C-CBL (residues 46-435) proteins from baculovirus-infected insect cells; made in house; host or cells: baculovirus-infected insect cells
- testMethodNotes: Ligand Displacement Assay (LDA), HTRF competitive binding against BODIPY-labeled fluorescent tracer, CBL-B
- settings: geometric mean of the number of tests, read-out: CBL-B Ki (nM) GMean
quantity: log10 Ki (log10 of the value in nM)

1. CC(C)NC(C)c1nc(C(F)(F)F)cc2c(-c3cccc([C@H](c4nncn4C)C4CCC4)c3)n[nH]c12 (single isomer, unassigned) [Example C34] : 0.95
2. CCC(CC)(CO)N[C@@H](C)c1nc(C(F)(F)F)cc2c(-c3cccc([C@H](c4nncn4C)C4CCC4)c3)n[nH]c12 (single isomer, unassigned) : 1.50
3. C[C@H](c1nc(C(F)(F)F)cc2c(-c3cccc([C@H](c4nncn4C)C4CCC4)c3)n[nH]c12)N1CCNC(=O)C1 (single isomer, unassigned) : 1.32
4. CC(C)[C@H]1CN(C)CCN1Cc1nc(C(F)(F)F)cc2c(-c3cccc([C@H](c4nncn4C)C4CCC4)c3)n[nH]c12 : 0.11
5. CN1CC[C@H](Oc2nc(C(F)(F)F)cc3c(-c4cccc(C5(Cc6nncn6C)COC5)c4)n[nH]c23)C1 : 1.13
6. C[C@@H](c1nc(C(F)(F)F)cc2c(-c3cccc(C4(Cc5nncn5C)COC4)c3)n[nH]c12)N1CC[C@@H](F)C1 (single isomer, unassigned) : 1.24

* * *

Item-by-item account of Kd
- measurementTarget: C-CBL (46-435) (Homo sapiens)
- Construct: N-terminal biotinylated WT CBL-B (36-427) and C-CBL (46-435) were captured on a streptavidin (SA) coated sensor chip
- testMethodNotes: Surface Plasmon Resonance (SPR) assay, binding affinity and kinetics, C-CBL
- settings: SPR at 10° C., biotinylated C-CBL (46-435) on streptavidin chip; geometric mean; read-out: C-CBL SPR Kd (nM) GMean
quantity: Kd (nM)

1) C[C@H](N[C@H]1CCC(F)(F)C1)c1nc(C(F)(F)F)cc2c(-c3cccc([C@H](c4nncn4C)C4CCC4)c3)n[nH]c12 : 5
2) Cn1cnnc1CC1(c2cccc(-c3n[nH]c4cnc(OC(F)F)cc34)c2)COC1 : 141
3) CN(C)Cc1nc(C(F)(F)F)cc2c(-c3cccc(C4(Cc5nncn5C)COC4)c3)n[nH]c12 : 182
4) CC(c1nc(C(F)(F)F)cc2c(-c3cccc(C4(Cc5nncn5C)COC4)c3)n[nH]c12)N1CCCCC1 (single isomer, unassigned) [Example C22] : 116
5) CN1CC[C@@H](N(C)c2nc(C(F)(F)F)cc3c(-c4cccc([C@H](c5nncn5C)C5CCC5)c4)n[nH]c23)C1 : 393
6) C[C@H](c1nc(C(F)(F)F)cc2c(-c3cccc(C4(Cc5nncn5C)COC4)c3)n[nH]c12)N1CC[C@@H](F)C1 (single isomer, unassigned) : 42

* * *

- measurementTarget: CBL-B (residues 36-427) (Homo sapiens, UniProt Q13191)
- Construct: Purified CBL-B (residues 36-427) and C-CBL (residues 46-435) proteins from baculovirus-infected insect cells; made in house; host or cells: baculovirus-infected insect cells
- testMethodNotes: Ligand Displacement Assay (LDA), HTRF competitive binding against BODIPY-labeled fluorescent tracer, CBL-B
- settings: geometric mean of the number of tests, read-out: CBL-B Ki (nM) GMean
quantity: log10 Ki (log10 of the value in nM)

1. Cn1cnnc1CC1(c2cccc(-c3n[nH]c4cnc(C5CC5)cc34)c2)COC1 [Example B4] : 1.87
2. C[C@H](N[C@@H](C)CO)c1nc(C(F)(F)F)cc2c(-c3cccc([C@H](c4nncn4C)C4CCC4)c3)n[nH]c12 (single isomer, unassigned) [Example D27] : 0.00
3. CC(CN)c1nc(C(F)(F)F)cc2c(-c3cccc([C@H](c4nncn4C)C4CCC4)c3)n[nH]c12 (single isomer, unassigned) [Example K14] : 1.39
4. C[C@@H]1CCCN(Cc2nc(C(F)(F)F)cc3c(-c4cccc(C5(Cc6nncn6C)COC5)c4)n[nH]c23)C1 [Example C29] : 0.93
5. C[C@@H](N[C@@H]1CC[C@@H]1O)c1nc(C(F)(F)F)cc2c(-c3cccc([C@H](c4nncn4C)C4CCC4)c3)n[nH]c12 (single isomer, unassigned) [Example D29] : 0.28
6. COc1nc(C(F)(F)F)cc2c(-c3cccc(C4(Cc5nncn5C)COC4)c3)n[nH]c12 [Example J10] : 1.40
